Where do these numbers come from? They come from PubChem BioAssay.

experiment: inhibitors of E-selectin induction by TNFa, primary screen, imaging, HUVEC, immunofluorescence, MLSMR starter and 10KST1 sets (AID 487); settings: HUVEC TNFalpha-induced E-selectin immunofluorescence imaging, at 2 µM; measured here: cell number, toxicity;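 note: 100% = median nuclei count of all wells on the same plate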
parameter_measured: nuclei count (%)
Express the result in % but write the number alone.

Quote nuclei count reported for COc1ccc(N2CCN(C(=O)C(OC(C)=O)c3ccccc3)CC2)cc1 (centres undefined) please.
95.4

Quote nuclei count reported for CCCOc1ccc(N2CC(C(=O)Nc3ccc4c(c3)OCO4)CC2=O)cc1 (centres undefined) please.
81.9

Quote nuclei count reported for CN1CCc2c(C#N)c(N3CCCCC3)nc(N3CCOCC3)c2C1 please.
127

Quote nuclei count reported for O=C1CCCC2=C1C(c1cccc(Br)c1)n1nc(-c3ccco3)nc1N2 (centres undefined) please.
109
